tgt: UGT1A1 (Homo sapiens, UniProt P22309)
Sequence (P22309 26-533): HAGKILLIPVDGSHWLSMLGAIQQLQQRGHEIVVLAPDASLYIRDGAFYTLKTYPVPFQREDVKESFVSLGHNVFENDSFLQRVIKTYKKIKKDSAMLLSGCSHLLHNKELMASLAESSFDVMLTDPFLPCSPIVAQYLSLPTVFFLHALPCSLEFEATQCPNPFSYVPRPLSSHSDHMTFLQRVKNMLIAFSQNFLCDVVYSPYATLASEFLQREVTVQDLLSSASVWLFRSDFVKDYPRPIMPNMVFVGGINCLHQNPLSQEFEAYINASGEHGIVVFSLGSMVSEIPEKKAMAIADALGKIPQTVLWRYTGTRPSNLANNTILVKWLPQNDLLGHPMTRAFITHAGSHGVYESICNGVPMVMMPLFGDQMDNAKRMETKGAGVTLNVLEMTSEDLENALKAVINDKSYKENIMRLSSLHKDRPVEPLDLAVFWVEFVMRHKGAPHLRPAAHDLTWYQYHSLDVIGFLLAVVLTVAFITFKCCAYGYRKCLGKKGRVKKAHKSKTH
assay_details: Inhibition of UGT1A1 (β-estradiol-3-O-glucuronidation)
test_parameters: human, expressed human UGT1A1 enzyme, probe β-estradiol (E2)
reported_property: activity at 10 µM (%)
Note: unit % is implicit; provide only the numeric part.

Problem: Value wanted: activity at 10 µM (UGT1A1 (Homo sapiens, UniProt P22309)) of entry COC(=O)N[C@H](C(=O)N[C@@H](Cc1ccccc1)[C@@H](O)CN(Cc1ccc(-c2ccccn2)cc1)NC(=O)[C@@H](NC(=O)OC)C(C)(C)C)C(C)(C)C [atazanavir, reference compound]
Solution: 4.38

###

tgt: UGT1A1 (Homo sapiens)
Sequence (P22309 26-533): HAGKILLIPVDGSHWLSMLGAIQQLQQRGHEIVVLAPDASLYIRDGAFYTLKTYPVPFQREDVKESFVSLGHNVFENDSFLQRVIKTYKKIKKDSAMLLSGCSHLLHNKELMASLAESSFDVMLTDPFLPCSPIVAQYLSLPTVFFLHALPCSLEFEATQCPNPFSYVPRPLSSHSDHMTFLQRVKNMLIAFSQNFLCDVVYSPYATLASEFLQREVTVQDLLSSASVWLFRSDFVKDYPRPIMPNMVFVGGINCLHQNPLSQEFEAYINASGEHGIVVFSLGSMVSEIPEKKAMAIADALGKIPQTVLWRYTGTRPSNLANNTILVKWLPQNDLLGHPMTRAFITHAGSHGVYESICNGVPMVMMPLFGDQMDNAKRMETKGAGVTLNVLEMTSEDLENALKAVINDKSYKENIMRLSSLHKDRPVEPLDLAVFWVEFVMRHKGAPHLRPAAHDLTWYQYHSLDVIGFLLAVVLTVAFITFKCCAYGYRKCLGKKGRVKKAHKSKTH
assay_details: Inhibition of UGT1A1 (β-estradiol-3-O-glucuronidation)
Hi there, I'd appreciate the recorded pKi for every entry that follows.
Scale explanation: pKi corresponds to minus log10 of a concentration expressed in moles per litre.

Problem: Fill in the recorded pKi for this compound, with UGT1A1 (Homo sapiens) as test system: CC(C)=CCc1cc2c(cc1O)O[C@H](c1ccc(O)cc1)CC2=O [Bavachin, bavachin]
Solution: 6.40

Problem: Please state recorded pKi (tested on UGT1A1 (Homo sapiens)) of COc1ccc(-c2oc3c(CC=C(C)C)c(O)cc(O)c3c(=O)c2O)cc1 [Icaritin, icaritin]
Solution: 6.38

Problem: # returns recorded pKi (system: UGT1A1 (Homo sapiens)) for CC(C)=CCc1cc(C(=O)/C=C/c2ccc(O)cc2)c(O)cc1O [Bavachalcone, bavachalcone]
Solution: 5.96

Problem: // map CC(C)=CCc1c(O)ccc(C(=O)/C=C/c2ccc(O)cc2)c1O [Isobavachalcone, isobavachalcone] to recorded pKi (system: UGT1A1 (Homo sapiens))
Solution: 5.92

Problem: Kindly state the measured pKi obtained for CC(C)=CCc1cc2c(cc1O)oc(=O)c1c3ccc(O)cc3oc21 [Psoralidin, psoralidin] with UGT1A1 (Homo sapiens).
Solution: 6.01

Problem: Form field - read-out: pKi; system: UGT1A1 (Homo sapiens); submitted item: O=C(C=Cc1ccc(O)c2c1C(C(=O)OC(Cc1ccc(O)c(O)c1)C(=O)O)C(c1ccc(O)c(O)c1)O2)OC(Cc1ccc(O)c(O)c1)C(=O)O (stereo not drawn) [Salvianolic acid B, salvianolic acid B]
Solution: 5.67

Problem: So what pKi did COc1ccc(-c2oc3c(CC=C(C)C)c(O[C@@H]4O[C@H](CO)[C@@H](O)[C@H](O)[C@H]4O)cc(O)c3c(=O)c2O)cc1 [Icariside I, icariside I] get with UGT1A1 (Homo sapiens)?
Solution: 5.22

Problem: Observed pKi on UGT1A1 (Homo sapiens) for CC(C)=CCc1cc(-c2coc3cc(O)ccc3c2=O)ccc1O [Neobavaisoflavone, neobavaisoflavone] , please.
Solution: 6.11

Problem: What is its pKi for UGT1A1 (Homo sapiens)? Entry: CC(C)=CCC/C(C)=C/Cc1cc(-c2coc3cc(O)ccc3c2=O)ccc1O [Corylifol A, corylifol A]
Solution: 6.36

###

Assignment: determine reported activity at 10 µM for the given molecules.
tgt: UGT1A1 (Homo sapiens)
Sequence (P22309 26-533): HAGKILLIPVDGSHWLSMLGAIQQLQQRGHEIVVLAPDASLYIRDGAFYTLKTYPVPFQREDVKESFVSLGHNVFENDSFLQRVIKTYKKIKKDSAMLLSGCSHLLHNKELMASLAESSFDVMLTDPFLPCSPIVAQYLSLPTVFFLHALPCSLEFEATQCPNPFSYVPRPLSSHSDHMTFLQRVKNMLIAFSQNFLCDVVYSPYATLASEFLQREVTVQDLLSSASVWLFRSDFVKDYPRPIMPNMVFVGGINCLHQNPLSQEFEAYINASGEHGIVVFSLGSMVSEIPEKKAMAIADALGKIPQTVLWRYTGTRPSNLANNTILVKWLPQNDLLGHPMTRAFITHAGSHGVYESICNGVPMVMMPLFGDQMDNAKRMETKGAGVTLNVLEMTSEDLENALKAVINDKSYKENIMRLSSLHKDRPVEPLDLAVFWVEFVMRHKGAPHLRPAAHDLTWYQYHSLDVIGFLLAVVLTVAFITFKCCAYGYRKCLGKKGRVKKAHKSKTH
assay_details: Inhibition of UGT1A1 (β-estradiol-3-O-glucuronidation)
test_parameters: human, human UGT1A1 enzyme, probe β-estradiol (E2)
Method: The final volume of solvent in incubations was 1%. In addition, emodin, atazanavir, and diclofenac were considered as positive controls for UGT1A10, UGT1A1, and UGT2B7, respectively. Competitive inhibition, non-competitive inhibition, and mixed-type inhibition models were used to estimate the Ki values by nonlinear regression based on Eqs 6–8, respectively.

Problem: Using the record for CC(C)=CCc1cc2c(cc1O)O[C@H](c1ccc(O)cc1)CC2=O , report its activity at 10 µM.
Solution: 2.43%

Problem: activity at 10 µM for COc1ccc(-c2oc3c(CC=C(C)C)c(O[C@@H]4O[C@H](CO)[C@@H](O)[C@H](O)[C@H]4O)cc(O)c3c(=O)c2O)cc1 [Icariside I, icariside I] ?
Solution: 35.5%

Problem: Name the recorded activity at 10 µM for CC(C)=CCC/C(C)=C/Cc1cc(-c2coc3cc(O)ccc3c2=O)ccc1O .
Solution: 0.72%

Problem: I would be grateful if you could share the reported activity at 10 µM for CC(C)=CCc1cc(C(=O)/C=C/c2ccc(O)cc2)c(O)cc1O .
Solution: 13%

###

For each record, write down the corresponding pIC50.
tgt: UGT2B7 (Homo sapiens)
Sequence (P16662 24-529): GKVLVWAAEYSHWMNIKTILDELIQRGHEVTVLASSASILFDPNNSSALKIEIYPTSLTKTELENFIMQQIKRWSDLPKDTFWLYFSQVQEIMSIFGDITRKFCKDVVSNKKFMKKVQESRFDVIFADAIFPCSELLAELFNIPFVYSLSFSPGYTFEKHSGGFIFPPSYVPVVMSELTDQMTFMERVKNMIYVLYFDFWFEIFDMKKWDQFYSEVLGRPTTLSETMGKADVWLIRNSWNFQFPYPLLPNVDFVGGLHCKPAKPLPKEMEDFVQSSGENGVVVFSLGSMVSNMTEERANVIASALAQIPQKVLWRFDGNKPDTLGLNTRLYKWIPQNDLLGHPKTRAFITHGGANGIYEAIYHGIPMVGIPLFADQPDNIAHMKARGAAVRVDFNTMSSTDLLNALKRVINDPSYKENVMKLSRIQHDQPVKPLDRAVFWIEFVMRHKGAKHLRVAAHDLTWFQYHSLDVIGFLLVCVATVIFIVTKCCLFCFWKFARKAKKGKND
assay_details: Inhibition of UGT2B7 (zidovudine-N-glucuronidation)
Protocol: The final volume of solvent in incubations was 1%. In addition, emodin, atazanavir, and diclofenac were considered as positive controls for UGT1A10, UGT1A1, and UGT2B7, respectively. Competitive inhibition, non-competitive inhibition, and mixed-type inhibition models were used to estimate the Ki values by nonlinear regression based on Eqs 6–8, respectively.
The quantity pIC50 is defined as the negative base-10 logarithm of the molar concentration.

Problem: Given the entry CC(C)=CCc1cc(-c2coc3cc(O)ccc3c2=O)ccc1O [Neobavaisoflavone, neobavaisoflavone] , report its measured pIC50.
Solution: 5.93

Problem: What measured pIC50 goes with CC(C)=CCc1c(O)ccc(C(=O)/C=C/c2ccc(O)cc2)c1O [Isobavachalcone, isobavachalcone] ?
Solution: 5.86

Problem: Bench note: what pIC50 did C=C[C@@](C)(/C=C/c1ccc(O)cc1)CCC=C(C)C [Bakuchiol, bakuchiol] show?
Solution: 5.34

Problem: Can you look up the measured pIC50 of CC(C)=CCc1c(O)ccc2c1O[C@H](c1ccc(O)cc1)CC2=O [Isobavachin, isobavachin] for me?
Solution: 6.96

Problem: Which pIC50 is reported for this compound? CC(C)=CCc1cc2c(cc1O)O[C@H](c1ccc(O)cc1)CC2=O [Bavachin, bavachin]
Solution: 5.30

Problem: Sample CC(C)=CCc1cc(C(=O)/C=C/c2ccc(O)cc2)c(O)cc1O [Bavachalcone, bavachalcone] — what was its pIC50?
Solution: 5.33

Problem: Recorded pIC50 of CC(C)=CCC/C(C)=C/Cc1cc(-c2coc3cc(O)ccc3c2=O)ccc1O [Corylifol A, corylifol A] , please.
Solution: 6.06
